The reported numbers originate from paper PMC9574860.

- TARGET SYSTEM: Parkinson's disease protein 7 (PARK7/DJ1) (human, UniProt Q99497)
- Sequence (Q99497 whole entry, looked up): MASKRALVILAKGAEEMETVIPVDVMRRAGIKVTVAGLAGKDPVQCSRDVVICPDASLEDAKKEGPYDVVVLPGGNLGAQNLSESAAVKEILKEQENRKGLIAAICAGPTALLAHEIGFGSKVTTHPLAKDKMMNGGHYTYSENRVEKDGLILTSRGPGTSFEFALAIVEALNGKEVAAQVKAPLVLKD
- TEST METHOD NOTES: primary screen, percent inhibition; higher = more effect of the substance
- EXPERIMENTAL CONTEXT: 100 µM
Among all 7,900 compounds or so, about 400 (5.1%) showed an effect of 50% or more. Shown is part of a subset that was picked to be rich in strong results.
RESULT TYPE: Inhibition % (%)
Just the number please, in %, no unit attached.

CN1CCC(CNc2ccc(C#N)nc2)CC1	1.29
CC1(C)OB(c2ccco2)OC1(C)C	7.09

In plain terms, Cc1nn(-c2ccccc2)c(C)c1CNC(=O)CCl has a documented Inhibition % of 13.2

In plain terms, CCN(Cc1ccc2c(c1)OCO2)C(=O)CCl has a documented Inhibition % of 9.14

In plain terms, C=CC(=O)N1C[C@@]2(C)CS(=O)(=O)C[C@@]2(C)C1 has a documented Inhibition % of 5.67

====

- TARGET SYSTEM: Parkinson's disease protein 7 (PARK7/DJ1) (human)
- TEST METHOD NOTES: primary screen, percent inhibition; read as competition with a fluorescent probe by fluorescence polarization; higher = more effect of the substance
- EXPERIMENTAL CONTEXT: 100 µM
Among all 7,900 compounds or so, about 400 (5.1%) showed an effect of 50% or more. This excerpt belongs to a sample that is enriched for strong results.
RESULT TYPE: Inhibition % (%)
Just the number please, in %, no unit attached.

Cn1cccc1C(=O)CCl	8.03
Cc1cc(C(=O)CCl)c(C)n1-c1ccon1	82.8
Cn1ccnc1C(=O)CCl	32.3
Cl.O=S(=O)(F)CCNc1ccc(F)cc1	36.8
Cc1cc(F)c(C(=O)CCl)cc1F	5.49

In plain terms, COc1ccc2cc(CN(C)C(=O)CCl)ccc2c1 has a documented Inhibition % of 8

In plain terms, Cc1conc1NS(=O)(=O)c1ccc(S(=O)(=O)F)cc1 has a documented Inhibition % of 27

In plain terms, C=CC(=O)NC1C2CCOC2C12CCCC2 (centres unmarked) has a documented Inhibition % of 5.2

In plain terms, CCn1c(C)cc(C(=O)Cn2cnc(C#N)n2)c1C has a documented Inhibition % of 0.239

In plain terms, C=CCn1c(C)cc(C(=O)CCl)c1C has a documented Inhibition % of 58.7

In plain terms, C=CC(=O)NCCCc1cnn(C)n1 has a documented Inhibition % of 5.99

In plain terms, Cc1cc(C(=O)CCl)c(C)n1C(C)C has a documented Inhibition % of 96.9

In plain terms, Cc1csc(-n2c(C)cc(C(=O)CCl)c2C)n1 has a documented Inhibition % of 51

In plain terms, CN(Cc1nc2ccccc2[nH]1)S(=O)(=O)C1=CCCCC1 has a documented Inhibition % of 8.82

In plain terms, CCn1c(C)cc(C(=O)CCl)c1C has a documented Inhibition % of 56

In plain terms, Cc1cc(C(=O)CCl)c(F)cc1F has a documented Inhibition % of 5.96

In plain terms, Cc1cc(C(=O)CCl)c(C)n1CC(N)=O has a documented Inhibition % of 4.29

In plain terms, Cc1cc(C(=O)CCl)c(C)[nH]1 has a documented Inhibition % of 98.2

In plain terms, COc1ccc(NCCS(=O)(=O)F)cc1.Cl has a documented Inhibition % of 44.4
